- subject_of_test: Ubiquitin carboxyl-terminal hydrolase 7 (Homo sapiens)
- measurement_notes: Inhibition of human full length USP7 overexpressed in baculovirus-infected insect cells using ubiquitin-C-terminal 7-amido-4-methylcoumarin as substrate by fluorescence spectroscopy
endpoint_name: pIC50
Numbers only, as −log10 of the molar value.

Lab request: please report pIC50 under test system Ubiquitin carboxyl-terminal hydrolase 7 (Homo sapiens) for N#Cc1cc2c(cc1C#N)-c1ccccc1C2=O
5.46

====

- subject_of_test: Ubiquitin carboxyl-terminal hydrolase 7 (Homo sapiens, UniProt Q93009)
- Sequence (Q93009 whole entry): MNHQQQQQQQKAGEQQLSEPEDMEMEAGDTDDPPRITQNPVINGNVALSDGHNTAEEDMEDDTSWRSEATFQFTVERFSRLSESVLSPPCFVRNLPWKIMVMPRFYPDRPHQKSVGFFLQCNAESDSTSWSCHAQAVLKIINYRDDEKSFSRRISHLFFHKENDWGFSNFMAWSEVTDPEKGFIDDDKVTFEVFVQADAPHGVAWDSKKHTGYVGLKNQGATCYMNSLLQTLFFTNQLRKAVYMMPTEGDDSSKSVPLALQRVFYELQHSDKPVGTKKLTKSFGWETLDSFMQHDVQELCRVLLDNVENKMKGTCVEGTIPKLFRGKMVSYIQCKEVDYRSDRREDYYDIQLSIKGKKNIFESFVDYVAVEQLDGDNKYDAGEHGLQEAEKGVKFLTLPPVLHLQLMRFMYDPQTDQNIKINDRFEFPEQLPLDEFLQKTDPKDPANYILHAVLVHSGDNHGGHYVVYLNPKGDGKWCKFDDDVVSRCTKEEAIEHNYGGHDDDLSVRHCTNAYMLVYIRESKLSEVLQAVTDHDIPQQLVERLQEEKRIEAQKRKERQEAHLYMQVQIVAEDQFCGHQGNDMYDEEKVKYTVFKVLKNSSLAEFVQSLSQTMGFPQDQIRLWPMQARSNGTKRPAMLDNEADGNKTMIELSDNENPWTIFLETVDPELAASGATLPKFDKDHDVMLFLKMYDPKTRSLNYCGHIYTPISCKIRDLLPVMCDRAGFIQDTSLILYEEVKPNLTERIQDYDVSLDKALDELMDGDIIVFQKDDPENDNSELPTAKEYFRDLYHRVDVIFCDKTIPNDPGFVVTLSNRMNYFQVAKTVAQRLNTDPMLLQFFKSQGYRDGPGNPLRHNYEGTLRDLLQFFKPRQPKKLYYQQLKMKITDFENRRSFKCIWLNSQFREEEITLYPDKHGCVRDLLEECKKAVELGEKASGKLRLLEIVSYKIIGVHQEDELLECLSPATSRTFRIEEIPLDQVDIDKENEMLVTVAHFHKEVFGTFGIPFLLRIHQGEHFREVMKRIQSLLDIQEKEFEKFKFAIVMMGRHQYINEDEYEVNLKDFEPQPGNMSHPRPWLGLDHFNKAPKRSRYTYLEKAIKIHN
- measurement_notes: Inhibition of USP7 (unknown origin) […]
endpoint_name: pIC50
Answers are plain numbers, as −log10 of the molar value.

Query: pIC50; subject: COc1ccc(N2CCN(C(=S)Nc3ccc([N+](=O)[O-])cc3)CC2)c(N)c1
4.98

====

- subject_of_test: Ubiquitin carboxyl-terminal hydrolase 2 (Homo sapiens, UniProt O75604)
- Sequence (O75604 whole entry): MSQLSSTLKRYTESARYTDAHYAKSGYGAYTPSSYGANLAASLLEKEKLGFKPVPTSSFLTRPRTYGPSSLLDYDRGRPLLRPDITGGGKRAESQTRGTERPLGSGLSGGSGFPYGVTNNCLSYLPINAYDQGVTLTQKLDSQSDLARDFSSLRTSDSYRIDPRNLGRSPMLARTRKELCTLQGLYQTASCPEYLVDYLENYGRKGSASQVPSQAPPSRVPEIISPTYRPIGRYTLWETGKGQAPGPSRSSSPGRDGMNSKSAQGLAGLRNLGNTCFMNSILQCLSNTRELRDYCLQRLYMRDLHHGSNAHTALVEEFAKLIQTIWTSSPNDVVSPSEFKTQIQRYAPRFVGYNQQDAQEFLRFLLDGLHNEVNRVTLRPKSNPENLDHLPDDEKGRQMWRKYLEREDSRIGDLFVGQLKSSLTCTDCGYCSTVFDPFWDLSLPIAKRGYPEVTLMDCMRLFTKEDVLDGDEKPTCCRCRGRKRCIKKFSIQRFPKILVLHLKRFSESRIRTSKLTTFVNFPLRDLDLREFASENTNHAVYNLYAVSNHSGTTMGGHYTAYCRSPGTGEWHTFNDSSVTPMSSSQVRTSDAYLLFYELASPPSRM
endpoint_name: IC50 (µM)
Give bare numbers, in µM.

Item under review: Cc1n[nH]c(C)c1Oc1c(O)cc(O)c2c(=O)cc(-c3ccc(N4CCN(c5ccccn5)CC4)cc3)oc12 . Reported IC50?
50

====

For each entry below, report its pIC50 value.
- subject_of_test: Ubiquitin carboxyl-terminal hydrolase 8 (Homo sapiens, UniProt P40818)
- Sequence (P40818 whole entry, the tested form may be a part): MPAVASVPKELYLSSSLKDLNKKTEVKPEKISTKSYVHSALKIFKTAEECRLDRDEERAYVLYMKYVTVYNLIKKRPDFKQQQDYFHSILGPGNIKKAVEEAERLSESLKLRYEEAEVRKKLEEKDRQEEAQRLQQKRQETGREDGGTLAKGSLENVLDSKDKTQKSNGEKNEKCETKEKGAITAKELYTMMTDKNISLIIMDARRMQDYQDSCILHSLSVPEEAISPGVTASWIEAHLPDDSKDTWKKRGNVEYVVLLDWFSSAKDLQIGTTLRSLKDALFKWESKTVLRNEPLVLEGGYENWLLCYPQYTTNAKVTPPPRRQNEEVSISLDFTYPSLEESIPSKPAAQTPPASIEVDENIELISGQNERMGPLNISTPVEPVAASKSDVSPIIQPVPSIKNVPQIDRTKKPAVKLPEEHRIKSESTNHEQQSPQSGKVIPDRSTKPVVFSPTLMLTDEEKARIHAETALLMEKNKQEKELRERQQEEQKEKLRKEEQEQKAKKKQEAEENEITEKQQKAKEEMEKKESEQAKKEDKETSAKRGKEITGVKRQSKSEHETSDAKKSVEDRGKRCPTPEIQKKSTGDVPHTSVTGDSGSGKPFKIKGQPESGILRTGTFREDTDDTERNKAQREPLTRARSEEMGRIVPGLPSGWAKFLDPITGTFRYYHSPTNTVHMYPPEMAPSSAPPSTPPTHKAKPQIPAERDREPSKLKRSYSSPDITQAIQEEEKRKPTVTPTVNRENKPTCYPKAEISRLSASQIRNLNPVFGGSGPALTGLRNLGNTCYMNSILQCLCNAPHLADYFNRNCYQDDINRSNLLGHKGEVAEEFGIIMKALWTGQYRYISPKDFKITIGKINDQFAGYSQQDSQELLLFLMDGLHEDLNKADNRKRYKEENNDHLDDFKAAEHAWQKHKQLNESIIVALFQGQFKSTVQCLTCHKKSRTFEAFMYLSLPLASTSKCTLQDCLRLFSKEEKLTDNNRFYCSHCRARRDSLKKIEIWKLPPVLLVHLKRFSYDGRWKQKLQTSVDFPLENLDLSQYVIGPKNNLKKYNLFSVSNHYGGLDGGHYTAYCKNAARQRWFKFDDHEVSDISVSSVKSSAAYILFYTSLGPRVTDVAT
- measurement_notes: Inhibition of N-terminal His6-tagged USP8 (unknown origin) catalytic domain (734 to 1110 residues) expressed in Escherichia coli BL21 (DE3) cells assessed as deubiquitinating activity using ubiquitin-rhodamine -110 as substrate incubated for 30 mins followed by substrate addition measured after 30 mins by ubiquitin-rhodamine-110 based fluorometric assay
Numbers only, as −log10 of the molar value.

Below, each entry is followed by its recorded pIC50 result.
| structure_smiles | reported_measurement |
| --- | --- |
| Cc1n[nH]c(C)c1Oc1c(O)cc(O)c2c(=O)cc(-c3ccc(N4CCN(C(C)C)CC4)cc3)oc12 | 4.79 |
| COc1c(O)cc(O)c2c(=O)cc(-c3ccc(N4CCOCC4)cc3)oc12 | 4.74 |

Turning now to a further record.
Find the recorded pIC50 belonging to COc1c(O)cc(O)c2c(=O)cc(-c3ccc(N4CCCNCC4)cc3)oc12 and report it.
4.50
